experiment summary: AUC (0 to infinity) in Sprague-Dawley rat at 3 mg/kg, iv
Type: ADME, organism-based
Parameters: dose 3 mg/kg, route intravenous, time infinity
details: plasma
readout label: AUC(0-inf) (ng·h/mL)
Numbers only, in ng·h/mL.

INSERT INTO measurements (compound_string, measured) VALUES
  ('O=C(Cc1c(F)cccc1Cl)Nc1onc(-c2ccc(F)cc2)c1-c1ccncn1', 505);

Lookup: Could you share which AUC(0-inf) value was measured for Nc1onc(-c2ccc(F)cc2)c1-c1ccncn1 ?
Found: 924

###

experiment summary: Metabolic stability in human liver S9 fraction assessed as compound remaining at 1 uM after 5 mins by LC-MS/MS analysis
Type: ADME, subcellular
details: read-out: Stability
readout label: remaining at 5 min, 1 µM
Write the quantity with the unit trailing the number.

Look over these answered cases.
INSERT INTO measurements (compound_string, measured) VALUES
  ('O=C(Cc1ccccc1)Nc1onc(-c2ccc(F)cc2)c1-c1ccncc1', '79.7%'),
  ('O=C(Cc1ccccc1)Nc1onc(-c2ccc(F)cc2)c1-c1ccncn1', '5.6%'),
  ('O=C(Cc1c(F)cccc1Cl)Nc1onc(-c2ccc(F)cc2)c1-c1ccncn1', '16.1%'),
  ('O=C(Cc1ccccc1Cl)Nc1onc(-c2ccc(F)cc2F)c1-c1ccncn1', '20.4%'),
  ('O=C(Cc1ccccc1Cl)Nc1onc(-c2ccc(Cl)cc2)c1-c1ccncn1', '96.6%'),
  ('O=C(Nc1onc(-c2ccc(F)cc2)c1-c1ccncc1)c1ccccc1', '39.6%');

As a next step, examine the compound that follows.
Lookup: Please report the recorded remaining at 5 min, 1 µM for Cc1ccc(C)c(CC(=O)Nc2onc(-c3ccc(F)cc3)c2-c2ccncn2)c1 .
Found: 53.9%
